System: IGR37-XP cells (Vemurafenib-resistant)
measurement.description: Kinase inhibitor library screening, PrestoBlue cell viability, 1 or 10 μM, 72 h
condition.info: IGR37 XP, 1μΜ; in %
Class (by cell viability (kinase inhibitor library screening)) -- group 1 = under 90, group 2 = from 90 up to 100, group 3 = 100 and over

These solved cases illustrate the format of a correct answer.
Cc1ccc(C(=O)Nc2cccc(C(F)(F)F)c2)cc1Nc1nc(-c2cccnc2)nc2c1cnn2C [NVP-BHG712, reference compound] : group 3
CNC(=O)c1cc(Oc2ccc(NC(=O)Nc3ccc(Cl)c(C(F)(F)F)c3)cc2)ccn1 : group 3
Cc1cc2c(F)c(Oc3ncnn4cc(OC[C@@H](C)O)c(C)c34)ccc2[nH]1 : group 3

For this compound, which bin applies? C=CCn1c(=O)c2cnc(Nc3ccc(N4CCN(C)CC4)cc3)nc2n1-c1cccc(C(C)(C)O)n1 [MK-1775, reference compound]
group 1

How about `Cc1[nH]c(/C=C2\C(=O)Nc3ccccc32)c(C)c1CCC(=O)O` ?
group 2

----------
Tested on: 501Mel cells (parental)
measurement.description: Kinase inhibitor library screening, PrestoBlue cell viability, 1 or 10 μM, 72 h
condition.info: 501Mel Parental, 10μΜ; in %
Each record is given TRUE if its reported cell viability (kinase inhibitor library screening) is strictly below 90. Records at or above 90 are given FALSE.

These solved cases illustrate the format of a correct answer.
CCN(CC)CCNC(=O)c1c(C)[nH]c(/C=C2\C(=O)Nc3ccc(F)cc32)c1C.O=C(O)C[C@H](O)C(=O)O [Sunitinib Malate (Sutent)] : TRUE
COc1cc2c(Oc3ccc4[nH]c(C)cc4c3F)ncnc2cc1OCCCN1CCCC1 [Cediranib (AZD2171)] : TRUE
CC1(C)CNc2cc(NC(=O)c3cccnc3NCc3ccncc3)ccc21 [Motesanib Diphosphate] : FALSE
COc1cc2/c(=N/c3ccc(Br)cc3F)nc[nH]c2cc1OCC1CCN(C)CC1 [Vandetanib (Zactima)] : TRUE

Consider the additional compound presented here.
Please check: cell viability (kinase inhibitor library screening) for CNC(=O)c1cc(Oc2ccc(NC(=O)Nc3ccc(Cl)c(C(F)(F)F)c3)cc2)ccn1 [Sorafenib (Nexavar)] , strictly under 90 or not?
TRUE

----------
Tested on: IGR37-GP cells (Dabrafenib-resistant)
measurement.description: Kinase inhibitor library screening, PrestoBlue cell viability, 1 or 10 μM, 72 h
condition.info: IGR37 GP, 10μΜ, 72 h
For each record, write down the corresponding cell viability, IGR37 GP, 10μΜ.
Answers are plain numbers, in %.

Illustrative cases are given below, each with its answer.
CC(O)C(=O)O.CC(O)C(=O)O.CN1CCN(c2ccc3nc(-c4c(N)c5c(F)cccc5[nH]c4=O)[nH]c3c2)CC1 : 46.5
CN(C)Cc1cccc(N/C(=C2\C(=O)Nc3cc(C(=O)N(C)C)ccc32)c2ccccc2)c1 [BIX 02189] : 85.5
O=C(NOCC1CC1)c1ccc(F)c(F)c1Nc1ccc(I)cc1Cl [CI-1040 (PD184352)] : 55.9
Nc1ncnc2c1c(-c1cccc(OCc3ccccc3)c1)cn2C1CC(CN2CCCC2)C1 (centres unmarked) [NVP-ADW742] : 1.6

Give me cell viability, IGR37 GP, 10μΜ for each of these molecules, listed below.
1. CCO.N#CC(=C(/N)Sc1ccccc1N)/C(C#N)=C(\N)Sc1ccccc1N [U0126-EtOH]
2. N#C/C(=C\c1ccc(O)c(O)c1)C(=O)NCc1ccccc1 [AG-490]
3. Nc1cccc(-c2cc3c(Oc4cccc(O)c4)ncnc3[nH]2)c1 [TWS119]
4. COc1cc2ncnc(Nc3ccc(F)c(Cl)c3)c2cc1NC(=O)/C=C/CN1CCCCC1 [Dacomitinib (PF299804,PF-00299804)]

1: 83.5; 2: 88.3; 3: 61.4; 4: 2.6

All figures here come from paper PMC6364417.
